Origin of values: ChEMBL document CHEMBL1136300

- test-target: Neuropeptide Y receptor type 5 (Homo sapiens, UniProt Q15761)
- Sequence (Q15761 whole entry): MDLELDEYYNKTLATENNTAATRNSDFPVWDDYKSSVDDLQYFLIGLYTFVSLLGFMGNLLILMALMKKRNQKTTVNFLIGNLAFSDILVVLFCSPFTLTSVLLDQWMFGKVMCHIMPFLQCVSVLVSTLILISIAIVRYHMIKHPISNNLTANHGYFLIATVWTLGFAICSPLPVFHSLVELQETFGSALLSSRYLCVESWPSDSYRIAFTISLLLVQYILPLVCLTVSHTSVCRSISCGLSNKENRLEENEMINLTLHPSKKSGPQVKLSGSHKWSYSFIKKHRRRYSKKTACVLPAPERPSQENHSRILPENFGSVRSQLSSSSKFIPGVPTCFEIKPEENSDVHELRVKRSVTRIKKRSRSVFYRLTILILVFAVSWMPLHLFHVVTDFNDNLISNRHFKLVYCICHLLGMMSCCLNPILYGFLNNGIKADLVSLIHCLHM
- assay-name: Binding affinity towards human neuropeptide Y receptor type 5 using [125I]-PYY as radioligand in baculovirus-infected Sf9 cells
metric-name: Ki (nM)

Clc1ccccc1-c1c[nH]c(-c2cccnc2)n1: 21

1 = Cc1cccc(-c2c[nH]c(-c3cccnc3)n2)c1
2 = c1cncc(-c2nc(C3CCCCC3)c[nH]2)c1
Lookup: Which item exceeds the other in Ki, 1 or 2 ? // respond with label for picked entry
Found: 2
(2: 231 nM, 1: 14 nM)

1 = c1ccc(-c2c[nH]c(-c3ccncc3)n2)cc1
2 = Clc1cccc(-c2c[nH]c(-c3cccnc3)n2)c1
Lookup: Could you tell me which of these two has the smaller Ki figure? First: 1 Second: 2 // respond with label for picked entry
Found: 2
(2: 8 nM, 1: 1530 nM)

a = c1ccc(-c2c[nH]c(-c3ccccc3)n2)cc1
b = FC(F)(F)c1cccc(-c2c[nH]c(-c3cccnc3)n2)c1
c = Clc1ccc(-c2c[nH]c(-c3cc4ccccc4cn3)n2)cc1Cl
d = Cc1[nH]c(-c2cccnc2)nc1-c1ccc(Cl)cc1
Lookup: Ascending by Ki, please. Answer by listing the labels in the order asked for.
Found: b, a, d, c

----------
- test-target: Neuropeptide Y receptor type 5 (Homo sapiens, UniProt Q15761)
- assay-name: Binding affinity towards human neuropeptide Y receptor type 5 using [125I]-PYY as radioligand in baculovirus-infected Sf9 cells
pKi: −log10 of the molar value.
metric-name: pKi

FC(F)(F)Oc1ccc(-c2c[nH]c(-c3cccnc3)n2)cc1: 6.68
Cc1ccccc1-c1c[nH]c(-c2cccnc2)n1: 7.40
Clc1ccc(-c2c[nH]c(-c3cnccn3)n2)cc1Cl: 7.40
c1ccc(-c2c[nH]c(-c3ccccn3)n2)cc1: 5.84

I = COc1cccc(-c2c[nH]c(-c3cccnc3)n2)c1
II = Clc1ccc(-c2c[nH]c(-c3ccccn3)n2)cc1Cl
III = Clc1ccc(-c2c[nH]c(-c3nccc4ccccc34)n2)cc1Cl
IV = Clc1ccc(-c2c[nH]c(-c3cccnc3)n2)cc1Cl
Lookup: Output the entries ranked by pKi from maximum down to minimum. Answer by listing the labels in the order asked for.
Found: IV, II, I, III
(IV: 8.40, II: 7.52, I: 7.25, III: 6.94)

P = FC(F)(F)c1ccccc1-c1c[nH]c(-c2cccnc2)n1
Q = c1ccc(-c2c[nH]c(-c3cccnc3)n2)cc1
Lookup: Could you tell me which of these two has the smaller pKi figure? First: P Second: Q // respond with label for picked entry
Found: Q

P = FC(F)(F)Oc1cccc(-c2c[nH]c(-c3cccnc3)n2)c1
Q = N#Cc1ccc(-c2c[nH]c(-c3cccnc3)n2)cc1
Lookup: Which item exceeds the other in pKi, P or Q ? // respond with label for picked entry
Found: P
(P: 8.31, Q: 5.52)
